# measurement.target: FASN Keto-reductase Domain (hFASN enzyme, full length) (Homo sapiens (Human), UniProt P49327)
# Sequence (P49327 whole entry, the tested form may be a part): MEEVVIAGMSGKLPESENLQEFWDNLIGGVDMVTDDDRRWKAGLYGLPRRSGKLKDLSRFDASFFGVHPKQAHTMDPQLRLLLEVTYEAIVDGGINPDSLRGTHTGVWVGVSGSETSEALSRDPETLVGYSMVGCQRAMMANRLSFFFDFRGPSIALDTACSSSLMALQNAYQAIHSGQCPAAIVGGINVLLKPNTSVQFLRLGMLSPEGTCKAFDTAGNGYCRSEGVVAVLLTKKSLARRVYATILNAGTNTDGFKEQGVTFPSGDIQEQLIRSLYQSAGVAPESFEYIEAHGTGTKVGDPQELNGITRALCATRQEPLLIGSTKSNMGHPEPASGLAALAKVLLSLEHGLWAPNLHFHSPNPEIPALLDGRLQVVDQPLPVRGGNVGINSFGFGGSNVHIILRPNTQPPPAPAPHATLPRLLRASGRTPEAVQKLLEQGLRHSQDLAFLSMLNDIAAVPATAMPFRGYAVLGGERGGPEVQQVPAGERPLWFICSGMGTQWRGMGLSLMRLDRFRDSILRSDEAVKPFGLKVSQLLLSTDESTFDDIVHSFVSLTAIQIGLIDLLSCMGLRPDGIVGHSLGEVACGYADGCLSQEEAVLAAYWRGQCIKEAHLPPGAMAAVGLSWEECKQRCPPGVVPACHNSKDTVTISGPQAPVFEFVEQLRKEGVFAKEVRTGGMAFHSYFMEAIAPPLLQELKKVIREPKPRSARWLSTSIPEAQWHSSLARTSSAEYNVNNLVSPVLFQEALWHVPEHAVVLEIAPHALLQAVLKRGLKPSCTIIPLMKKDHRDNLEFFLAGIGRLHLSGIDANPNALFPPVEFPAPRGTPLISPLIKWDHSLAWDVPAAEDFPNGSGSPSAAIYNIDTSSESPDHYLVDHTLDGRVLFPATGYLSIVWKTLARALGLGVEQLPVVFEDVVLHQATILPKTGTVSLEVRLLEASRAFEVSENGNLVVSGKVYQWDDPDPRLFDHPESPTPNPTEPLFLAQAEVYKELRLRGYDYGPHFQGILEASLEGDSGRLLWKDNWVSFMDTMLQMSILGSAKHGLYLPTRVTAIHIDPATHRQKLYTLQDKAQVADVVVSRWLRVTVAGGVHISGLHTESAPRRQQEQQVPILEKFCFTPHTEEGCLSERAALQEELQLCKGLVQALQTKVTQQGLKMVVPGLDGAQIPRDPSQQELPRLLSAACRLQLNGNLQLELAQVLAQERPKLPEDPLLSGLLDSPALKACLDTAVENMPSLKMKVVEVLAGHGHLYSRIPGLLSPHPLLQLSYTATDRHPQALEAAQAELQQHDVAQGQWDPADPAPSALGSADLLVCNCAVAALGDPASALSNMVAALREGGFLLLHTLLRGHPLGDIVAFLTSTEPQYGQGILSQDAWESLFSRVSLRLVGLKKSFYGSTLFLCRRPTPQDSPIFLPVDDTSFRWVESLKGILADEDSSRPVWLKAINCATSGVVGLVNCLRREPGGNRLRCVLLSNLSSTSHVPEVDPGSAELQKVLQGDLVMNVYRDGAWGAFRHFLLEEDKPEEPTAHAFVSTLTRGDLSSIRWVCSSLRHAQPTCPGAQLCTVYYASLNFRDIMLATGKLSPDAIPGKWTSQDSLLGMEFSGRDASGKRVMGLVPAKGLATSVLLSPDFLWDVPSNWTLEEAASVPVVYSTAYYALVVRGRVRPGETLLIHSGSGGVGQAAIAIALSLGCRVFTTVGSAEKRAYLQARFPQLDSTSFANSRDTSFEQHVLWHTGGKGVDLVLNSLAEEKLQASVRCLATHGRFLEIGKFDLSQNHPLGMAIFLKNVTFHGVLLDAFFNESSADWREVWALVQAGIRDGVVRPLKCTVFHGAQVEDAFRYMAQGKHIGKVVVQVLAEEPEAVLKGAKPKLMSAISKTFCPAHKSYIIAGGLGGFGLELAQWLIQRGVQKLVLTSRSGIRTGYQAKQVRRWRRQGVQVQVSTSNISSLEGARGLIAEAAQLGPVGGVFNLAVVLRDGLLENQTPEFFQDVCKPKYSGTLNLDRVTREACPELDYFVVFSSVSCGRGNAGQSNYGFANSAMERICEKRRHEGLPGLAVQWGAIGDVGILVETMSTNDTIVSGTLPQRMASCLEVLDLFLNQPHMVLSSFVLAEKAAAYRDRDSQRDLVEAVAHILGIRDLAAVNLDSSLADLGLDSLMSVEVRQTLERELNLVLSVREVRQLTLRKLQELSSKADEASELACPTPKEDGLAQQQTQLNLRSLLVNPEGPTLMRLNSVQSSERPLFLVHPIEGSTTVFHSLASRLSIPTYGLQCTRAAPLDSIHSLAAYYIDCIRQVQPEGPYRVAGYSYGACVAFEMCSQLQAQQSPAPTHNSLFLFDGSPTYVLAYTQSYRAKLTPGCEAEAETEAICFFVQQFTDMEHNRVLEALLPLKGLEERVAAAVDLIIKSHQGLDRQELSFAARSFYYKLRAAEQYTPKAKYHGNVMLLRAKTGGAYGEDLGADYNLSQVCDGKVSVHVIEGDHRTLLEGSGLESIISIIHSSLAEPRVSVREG
# test.name: Fatty Acid Synthase Keto-reductase Domain (FASN KR) Inhibition
# Type: biochemical
# experimental.parameters: NADPH oxidation at 340 nm, ethyl acetoacetate substrate
reported.endpoint: FASN Keto-reductase Domain pIC50

compound: Cn1cc(-c2ccc(-c3ccc(C4=NC(C)(C)C(=O)N4C[C@@H]4CCN(C(=O)C5CC5)C4)cc3)cc2)cn1 [Compound 16]
reported.endpoint: FASN Keto-reductase Domain pIC50
test.result: 6.20
//
compound: Cc1cc(-c2ccc3cc(F)ccc3c2)ccc1C1=NC(C)(C)C(=O)N1CC1CN(C(=O)C2(C)CC2)C1 [Compound 82]
reported.endpoint: FASN Keto-reductase Domain pIC50
test.result: 7.30
//
compound: CC1(C)N=C(c2ccc(-c3ccc4cnccc4c3)cc2)N(CC2CN(C(=O)C3CC3)C2)C1=O [Compound 27]
reported.endpoint: FASN Keto-reductase Domain pIC50
test.result: 6.41
//
compound: CC1(C)N=C(c2ccc(-c3ccc4cccc(F)c4c3)cc2)N(C[C@@H]2CCN(C(=O)C3CC3)C2)C1=O [Compound 41]
reported.endpoint: FASN Keto-reductase Domain pIC50
test.result: 7.13
//
compound: CC1(C)N=C(c2ccc(-c3c[nH]c4ccccc34)cc2)N(C[C@@H]2CCN(C(=O)C3CC3)C2)C1=O [Compound 65]
reported.endpoint: FASN Keto-reductase Domain pIC50
test.result: 6.14
//
compound: CC1(C)N=C(c2ccc(-c3ccc4cccc(F)c4c3)cc2F)N(CC2CN(C(=O)C3CC3)C2)C1=O [Compound 55]
reported.endpoint: FASN Keto-reductase Domain pIC50
test.result: 6.60
//
compound: CC1(C)N=C(c2ccc(-c3ccc(-c4ccncc4)cc3)cc2)N(CC2CN(C(=O)C3CC3)C2)C1=O [Compound 26]
reported.endpoint: FASN Keto-reductase Domain pIC50
test.result: 6.08
